Cited source for all entries: patent US20210388107A1

Would you kindly list EC50 for each of these binders?
molecular target: T1, human SIRPαBIT expressed on cells (human, UniProt P78324 31-504); test: flow cytometry, U937 cells
T1 construct: endogenous on U937 cells or transiently expressed on ExpiCHO-S cells; in the SHP-1 assay a ProLink-tagged form on Jurkat cells; also called huSIRPαBIT; U937 cells (huSIRPαBIT)
T1 sequence (P78324 31-504 limits assumed): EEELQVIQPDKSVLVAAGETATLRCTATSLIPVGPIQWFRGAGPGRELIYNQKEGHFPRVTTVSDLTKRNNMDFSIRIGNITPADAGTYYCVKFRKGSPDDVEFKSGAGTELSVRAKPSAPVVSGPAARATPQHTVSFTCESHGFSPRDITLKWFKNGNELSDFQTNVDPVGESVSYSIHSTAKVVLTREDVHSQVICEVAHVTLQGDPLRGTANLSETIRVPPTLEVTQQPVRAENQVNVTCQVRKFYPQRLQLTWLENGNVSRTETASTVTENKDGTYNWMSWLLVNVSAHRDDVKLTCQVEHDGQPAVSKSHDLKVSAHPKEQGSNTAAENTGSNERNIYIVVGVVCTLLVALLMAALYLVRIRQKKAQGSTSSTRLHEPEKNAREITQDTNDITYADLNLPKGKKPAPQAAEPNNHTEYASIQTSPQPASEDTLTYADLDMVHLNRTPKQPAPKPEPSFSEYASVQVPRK
API: value field is a number in µg/mL; no unit string.

Query block: Using known records, supply EC50 for humanized anti-SIRPα antibody 11 (antibody, human IgG1, kappa, L234A L235A, V domains shown, human IgG1 LALA, kappa; also called mAb 11) VH: RQLVESGGGLVQPGGSLRLSCAASGFSLSSHGISWVRQAPGKGLEWVGTIGTGVITYYASWAKGRFTGSKTSSTAYLQMTSLRAEDTAVYYCARGSAWNDPFDYWGQGTLVTVSS VL: DIEMTQSPSSVSASVGDRVTLTCQASQSVYGNNDLAWYQQKPGQAPKLLIYLASTLATGVPSRFSGSGSGTDFTLTISSLQPEDFATYYCLGGGDDEADNVFGGGTKVEIKR
Result block: 3.73

Query block: Report measured EC50; entry is HEFLB (humanized IgG4) (antibody, V domains shown, humanized IgG4 of WO 2017/178653; also called humanized HEFLB) VH: EVQLVQSGAEVKKPGESLRISCKASGYSFTSYWVHWVRQMPGKGLEWMGNIDPSDSDTHYSPSFQGHVTLSVDKSISTAYLQLSSLKASDTAMYYCVRGGTGTLAYFAYWGQGTLVTVSS VL: DVVMTQSPLSLPVTLGQPASISCRSSQSLVHSYGNTYLYWFQQRPGQSPRLLIYRVSNRFSGVPDRFSGSGSGTDFTLKISRVEAEDVGVYYCFQGTHVPYTFGGGTKVEIKR
Result block: 0.25
